target_desc: Artificial Cell Surface (ACS): biotinylated cell surface proteins from mononuclear cells coupled to streptavidin-sepharose
assay_remarks: adsorption on ACS column, MALDI-TOF MS

[
  {
    "binder": "CCTESLVNR [trypsin-generated albumin fragment SEQ ID NO: 206 …]",
    "Percent Absorbed / %": 26
  },
  {
    "binder": "NECFLQHK [trypsin-generated albumin fragment SEQ ID NO: 209 NECFLQHK]",
    "Percent Absorbed / %": 22
  },
  {
    "binder": "DHVKLVNEVTEFAKTCVA [Asp-N-generated albumin fragment SEQ ID NO: 217]",
    "Percent Absorbed / %": 100
  }
]
